Tested on: SW480 cells
CONDITION_DESCRIPTION: human, 150 µM
No end group written: not given here.
ASSAY_ENDPOINT: percentage of viability SW480 cells
Give your result as the value with the unit written after it.

Some substances with known percentage of viability SW480 cells results, for comparison:
TYFNAVKPPITA-NH2 [Loop2-PS2Aa, TYFNAVKPPITA-NH2]: 39.5%
FKPQSGGGKCF-NH2 [Loop1-HCoV-229E, FKPQSGGGKCF-NH2]: 56.2%
NNETYFNAVKP-NH2 [Loop1-PS2Aa, NNETYFNAVKP-NH2]: 16%
PARDVLNTTSG-NH2 [P264-G274, PARDVLNTTSG-NH2]: 41.6%

Alright, here's another substance for you.
IN: # percentage of viability SW480 cells lookup, item H-FLGWLFKVASK-NH2 [A4W-GGN5, FLGWLFKVASK-NH2, reference compound]
OUT: 41.8%
